Every entry's value here was drawn from patent US10383866B2.

Reported human PXR @ 2 uM POC S values follow for various compounds
Molecular target: human PXR (Homo sapiens, UniProt O75469)
Sequence (O75469 whole entry): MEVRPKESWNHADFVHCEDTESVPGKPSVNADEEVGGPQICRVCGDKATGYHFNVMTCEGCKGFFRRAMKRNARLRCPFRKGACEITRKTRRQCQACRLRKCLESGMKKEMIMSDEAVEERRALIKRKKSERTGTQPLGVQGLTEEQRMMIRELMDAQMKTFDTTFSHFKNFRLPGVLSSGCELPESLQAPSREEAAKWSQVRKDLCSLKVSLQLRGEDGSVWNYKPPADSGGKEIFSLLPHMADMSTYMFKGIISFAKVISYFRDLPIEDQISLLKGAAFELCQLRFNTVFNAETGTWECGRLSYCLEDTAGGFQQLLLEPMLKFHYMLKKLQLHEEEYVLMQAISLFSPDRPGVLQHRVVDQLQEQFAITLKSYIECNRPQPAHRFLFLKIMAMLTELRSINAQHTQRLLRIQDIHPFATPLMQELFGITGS
Assay: Human PXR @ 2 uM POC
Assay type: in vitro ADME

Recorded human PXR @ 2 uM POC S, per entry:
Compound: COc1cc(CCC(F)(F)F)c(F)cc1-n1c(=O)ccc2cc(S(=O)(=O)Nc3ccon3)ccc21 (atropisomer, axis not shown; (P)) [Example 1]
Property: human PXR @ 2 uM POC S
Meas value: 0.22%

Compound: COc1cc(CCC(F)(F)F)c(F)cc1-n1c(=O)ccc2cc(S(=O)(=O)Nc3cccnn3)ccc21 (atropisomer, axis not shown; (P)) [Example 3]
Property: human PXR @ 2 uM POC S
Meas value: 3.20%

Compound: COc1cc(CC(F)(F)F)c(F)cc1-n1c(=O)ccc2cc(S(=O)(=O)Nc3ccon3)ccc21 (racemic) [Example 6A]
Property: human PXR @ 2 uM POC S
Meas value: −1.12%

Compound: COc1cc(CCC(F)(F)F)c(Cl)cc1-n1c(=O)ccc2cc(S(=O)(=O)Nc3ccon3)ccc21 (atropisomer, axis not shown; (P)) [Example 2]
Property: human PXR @ 2 uM POC S
Meas value: 2.38%

Compound: COc1cc(CC(F)(F)F)c(F)cc1-n1c(=O)ccc2cc(S(=O)(=O)Nc3ccon3)ccc21 (atropisomer, axis not shown; (P)) [Example 6B]
Property: human PXR @ 2 uM POC S
Meas value: −2.42%

Compound: COc1cc(C[C@@H](C)C(F)(F)F)c(F)cc1-n1c(=O)ccc2cc(S(=O)(=O)Nc3ccon3)ccc21 (racemic) [Example 4]
Property: human PXR @ 2 uM POC S
Meas value: −0.04%

Next item in the queue.
Data request: What human PXR @ 2 uM POC S value was documented for this compound, COc1cc(CCCC(F)(F)F)c(F)cc1-n1c(=O)ccc2cc(S(=O)(=O)Nc3ccon3)ccc21 (atropisomer, axis not shown; (P)) [Example 5] ?
Data returned: 1.87%
